assay: 14C assay with IPTG-induced recombinant E. coli cells: 14CO2 captured from [14C]-carboxyl-labeled dicamba; conditions: induced recombinant E. coli cells, [14C]-carboxyl-labeled dicamba, 14CO2 capture
Reported Metric: Dicamba Decarboxylase Activity

107 (protein, listed as Rhodopseudomonas palustris) MAIIDIHGHYTTAPKALEDWRNRQIAGIKDPSVMPKVSELKISDDELQASIIENQLKKMQERGSDLTVFSPRASFMAHHIGDFNVSSTWAAICNELCYRVSQLFPDNFIGAAMLPQSPGVDPKTCIPELEKCVKEYGFVAINLNPDPSGGHWTSPPLTDRIWYPIYEKMVELEIPAMIHVSTSCNTCFHTTGAHYLNADTTAFMQCVAGDLFKDFPELKFVIPHGGGAVPYHWGRFRGLAQEMKKPLLEDHVLNNIFFDTCVYHQPGIDLLNTVIPVDNVLFASEMIGAVRGIDPRTGFYYDDTKRYIEASTILTPEEKQQIYEGNARRVYPRLDAALKAKGK    No
69 (protein, listed as Microbacterium testaceum) MATSTEGQDVTDVHAHLLMPGLHAEVERRVPDEVQAAADLELRRNGLASLQASGRMIGERFPRLTDVRARLAAMDEQGVDRQWVSPSPNHFYPWANEGLATWASGEANRLIAEHVALAPDRLVGLGVVPLQHPHLVVDALDDAVLGRGLAGVEISSFAGDVELSDERLESFWARAAELRAVVFLHPFGCSLDERLDRFYLSNTVGQPTENAVALSHLIFSGVLDRHPGLRLIAAHGGGYLPTAIGRSDRAWRVRPEARGCAHAPSTYLSKLWFDTVVHDERALRWLVEAAGADRVLLGSDFPFDMGLDDPVAFVRGAGLQDAEVSGILGGNAAELLRTRVHA    No
13 (protein, listed as Metarhizium acridum) MAHGKVALEEAFALPRLHEKTRWWASLFAVNPDKHAAEMTDITDIRINYMDKHGVGYTILSYTAPGVQDISDPKEAQALAVEINDYVAGAIKNHPDRFGAFATLSMRNPQEAATELKRCVTQYGFKGALVNDTQRAGEDDMIFYDGPEWDVFWSTVEELDVPFYLHPRNPTGSLYEKLWAKRKWLVGPPLSFAQGVSLHVLGMVTNGVFDRHPKLQVVLGHLGEHIPFDMWRINHWFEDVKKPLGLDCKKTIREYFQQNIWITTSGHFSTTTLQFCMAEVGADRILFSIDYPFECFADACDWYDGVPINLVDKAKIGRDNARRLFKLPEFKDSEKHVDA    No
43 (protein, listed as Rhizobium leguminosarum) MAQGKIALEEHFAIPETLQDSAGFVPGDYWTELSARLLDIQDKRLRLMDTHGIEKMILSLNAPAVQAIPDKAKAVEISRRANDFLAEQCVKNPNRFLGFAALPLQDPDAATQELQRCVTTMGFVGALVNGFSQEGDGTTPLYYDLPQYRPFWAEVEKLDVPFYLHPRNPLPQDSRIYAGHSWLMGPTWAFAQETAVHALRLMGSGLFDEHPALRIIVGHMGEGLPYMMWRIDNRNAWVKVEKSYPAKRPIADYFNENFYITTSGNFRTQSLIDAMLEIGADRILFSADWPFENVDHAANWFDSATISEADRLKIGRTNAVSLFKLDR    High
78 (protein, listed as Marinobacter adhaerens) MALIDLHAHAPHPDYYDQHPHWGPAFELQSDGDIKLRVGHWVLSLGAPERKQALREAHARGETLDVQEYMAKWRDPEHRLASMDAAGQNAQVLSVPSHCYMYWAEPEFGVPFAKKVNDSLAEYCSAAPDRLMFWAHAPLNVPKEAAKEIRRACTELGAKGLVAGGSNFGGLEFDSPEMDPVWEALCDLDLPMFVHGYNQSVTWGEEANTDRYETTAIVGMNYDESKCFWYMINGGVFDRFPNLKVYITHGGGFVPYQLGRMAQTNPNLDTYHNKKPFLEYLKNFYFDVELHEVPMRQAMVEVIGADRVLYGSNFGGSDAVRHDLTDDLKLSQEDLDKIRWKNACDLLHLDPNKLGKVRG    Low
93 (protein, listed as Mucilaginibacter paludis) MAKYGKHITINKNMRIVTLEEHISFPEMADQIPKAALGSFGRSEAMQRIAPKLADITGERLKSMDANGISMQVLSVDSSGVNLLSPQQGPAFATQYNDLIANRIAGFEKRFTAFAHLPMTAPFAAADELERAVKEHHFCGAMIRGLTGDQFLDHPQFAPIFERAQKLDVPIYLHPGLPPKGVADIYYSGLPNYSGMAEALACYGWGWHSETALHVLRLLFSGIFDQYPKLKLVIGHMGEMLPMMMARSEKAFKPGNGGANVRTLTDTFRSQVYLTTSGFFTQPPLKIALDTFGIDHVMFSVDYPFSTNEMGIEFLNEIDLPDEEVARIAHGNADKLLNLKA    Low

Would you mind giving Dicamba Decarboxylase Activity for every molecule in the list below?
1. 94 (protein, listed as Bacillus thuringiensis) MANRGDSNMKSLVGVIMGSTSDWETMKYACDILDELNIPYEKKVVSAHRTPDYMFEYAETARERGLKVIIAGAGGAAHLPGMVAAKTNLPVIGVPVQSKALNGLDSLLSIVQMPGGVPVATVAIGKAGSTNAGLLAAQILGSFHDDIHDALELRREAIEKDVREGSELV
2. 60 (protein, listed as Catenulispora acidiphila) MARGFVRTAVVPGFWDAGWRGAGQPGGMRVDVHAHLFPAAYLDLLDDFRQDGGVGTREVRALGGGDGERELRLRLAAMDAVGVDVQLLSTCPQGPYTGDPTAAVEAARCANVALAQTVAQYPERLRALAALPLPHILASVDELNRAMEQDGMLGAAVGTSILGRPLSHPDFEPLFAALNRRKGVLFVHPIGESAGSPLMQASKLDRVIGYAAEVSTAILQLFQAGLTVKYPDIRIIAPHMGGYLPFLIQRLDRHRDWYLPKDAPSAGQLMRGIAYDTANPLPAALRLTAEVVGPERLLLGTDYPFEQGPSLRDHIEYILAAGLPEAQAKMIVDVNAADFLDMRSGAEQPPV

Solution:
1. No
2. No

These entries and their values trace back to patent US20160053277A1.
